Biological target: PARK7 (Homo sapiens)
Assay: Hit validation and pure-compound testing in the PARK7 FP assay with JYQ-107
Type: biochemical
Settings: crude compounds, 1 µM
MEASURED_PROPERTY: inhibition at 1 µM

1. N#CN1CC[C@@H](C(=O)Nc2nc3c(s2)CN(C(=O)c2cccnc2Oc2ccccc2Br)CC3)C1 ... 94.7%
2. N#CN1CC[C@@H](C(=O)Nc2nc3c(s2)CN(C(=O)Cc2cnn(-c4ccccc4)n2)CC3)C1 ... 94.3%
3. CC1CCCCN1S(=O)(=O)c1ccccc1C(=O)N1CCc2nc(NC(=O)[C@@H]3CCN(C#N)C3)sc2C1 (stereo partly shown) ... 95.9%
4. COc1ccccc1-c1cc(C(=O)N2CCc3nc(NC(=O)[C@@H]4CCN(C#N)C4)sc3C2)n[nH]1 ... 93%
5. N#CN1CC[C@@H](C(=O)Nc2nc3c(s2)CN(C(=O)c2cc(-n4ccnc4)ccn2)CC3)C1 ... 96%
6. N#CN1CC[C@@H](C(=O)Nc2nc3c(s2)CN(C(=O)c2coc(C#Cc4ccccc4)c2)CC3)C1 ... 83.4%
7. N#CN1CC[C@@H](C(=O)Nc2nc3c(s2)CN(C(=O)c2ccc(Cl)c(N4CCCS4(=O)=O)c2)CC3)C1 ... 95%

====

inhibition at 1.25 µM by entry:
Molecular target: PARK7 (Homo sapiens, UniProt Q99497)
Sequence (Q99497 whole entry): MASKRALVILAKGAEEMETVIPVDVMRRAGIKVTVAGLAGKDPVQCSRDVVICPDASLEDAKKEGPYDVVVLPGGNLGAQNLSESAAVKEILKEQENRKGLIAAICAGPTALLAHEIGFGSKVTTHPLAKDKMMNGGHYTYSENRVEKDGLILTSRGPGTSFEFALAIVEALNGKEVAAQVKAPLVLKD
Test: High-throughput screen of the crude compound library, PARK7 fluorescence polarization (FP) assay with FP reagent JYQ-107
Type: biochemical
Conditions: 1.25 µM, crude compound library; read-out: HTS FP assay %Inhibition (1.25 µM)
MEASURED_PROPERTY: inhibition at 1.25 µM (%)

1) COc1ccc(C(=O)N2CCc3nc(NC(=O)[C@@H]4CCN(C#N)C4)sc3C2)cc1S(=O)(=O)NCCc1ccccn1 [compound 175] ... 78.6
2) N#CN1CC[C@@H](C(=O)Nc2nc3c(s2)CN(C(=O)c2ccc(=O)n(Cc4ccccc4)n2)CC3)C1 [compound 127] ... 83.8
3) N#CN1CC[C@@H](C(=O)Nc2nc3c(s2)CN(C(=O)c2cnoc2-c2ccccc2C(F)(F)F)CC3)C1 [compound 185] ... 77.5
4) CN(Cc1ccnn1C)C(=O)C1CCCCC1C(=O)N1CCc2nc(NC(=O)[C@@H]3CCN(C#N)C3)sc2C1 (stereo partly shown) [compound 193] ... 73

====

Molecular target: PARK7 (Homo sapiens, UniProt Q99497)
Experiment: High-throughput screen of the crude compound library, PARK7 fluorescence polarization (FP) assay with FP reagent JYQ-107
Assay type: biochemical
Conditions: 1.25 µM, crude compound library; read-out: HTS FP assay %Inhibition (1.25 µM)
MEASURED_PROPERTY: inhibition at 1.25 µM (%)

1) N#CN1CC[C@@H](C(=O)Nc2nc3c(s2)CN(C(=O)c2ccc(F)c(S(=O)(=O)N4CCC4)c2)CC3)C1 ... 94.8
2) Cc1onc(C(=O)N2CCc3nc(NC(=O)[C@@H]4CCN(C#N)C4)sc3C2)c1CN1CCN(C)CC1 ... 57.9
3) Cc1noc(C)c1Cc1ccc(C(=O)N2CCc3nc(NC(=O)[C@@H]4CCN(C#N)C4)sc3C2)o1 ... 81.3
4) Cc1cc(C)c(C(=O)N2CCc3nc(NC(=O)[C@@H]4CCN(C#N)C4)sc3C2)c(OCC2CCCCC2)n1 ... 75.4
5) N#CN1CC[C@@H](C(=O)Nc2nc3c(s2)CN(C(=O)c2c(-c4ccccc4)noc2C(F)F)CC3)C1 ... 60.9
6) N#CN1CC[C@@H](C(=O)Nc2nc3c(s2)CN(C(=O)c2ccc(N4CCCS4(=O)=O)cc2)CC3)C1 ... 85.9
7) N#CN1CC[C@@H](C(=O)Nc2nc3c(s2)CN(C(=O)c2noc(-c4cccc(Cl)c4)n2)CC3)C1 ... 63
8) CN1CCN(C(=O)[C@@H]2[C@@H](C(=O)N3CCc4nc(NC(=O)[C@@H]5CCN(C#N)C5)sc4C3)C2(C)C)CC1 ... 66.8
9) N#CN1CC[C@@H](C(=O)Nc2nc3c(s2)CN(C(=O)c2csc(-c4ncccn4)n2)CC3)C1 ... 80.8
10) N#CN1CC[C@@H](C(=O)Nc2nc3c(s2)CN(C(=O)C2CCCN2C(=O)Cc2ccccc2)CC3)C1 (stereo partly drawn) ... 78.4
11) N#CN1CC[C@@H](C(=O)Nc2nc3c(s2)CN(C(=O)C2CCN(C(=O)CCOc4ccccc4)CC2)CC3)C1 ... 68.7
12) N#CN1CC[C@@H](C(=O)Nc2nc3c(s2)CN(C(=O)C2CC4CCC2O4)CC3)C1 (stereo partly drawn) ... 67.4
13) N#CN1CC[C@@H](C(=O)Nc2nc3c(s2)CN(C(=O)C2(n4cnnn4)CC2)CC3)C1 ... 65.7
14) CC(C(=O)N1CCc2nc(NC(=O)[C@@H]3CCN(C#N)C3)sc2C1)n1nc(C(F)(F)F)cc1C1CC1 (stereo partly drawn) ... 64.1
15) N#CN1CC[C@@H](C(=O)Nc2nc3c(s2)CN(C(=O)Cc2csc(COc4ccc(Cl)cc4)n2)CC3)C1 ... 75.4
